Listing of entries alongside the reported Partition Coefficient, D 3HP.
- PROTOCOL NOTES: Extraction of acrylic acid and 3-hydroxypropionic acid from aqueous stock solutions using various extractants
- TEST CONDITIONS: Aqueous Stock Solution No. 5 (12.51 wt % AA, 25.05 wt % 3HP); 22° C.; extractant phase/aqueous phase
MEASURED PROPERTY: Partition Coefficient, D 3HP

CCC(=O)OC [Methyl Propionate, Methyl propionate]	0.25
ClCCl [CH2Cl2, Methylene chloride]	0.02
CC(=O)OC(C)C [Isopropyl Acetate, Isopropyl acetate]	0.15
C=CC(=O)OC [Methyl Acrylate, Methyl acrylate]	0.31

* * *

- PROTOCOL NOTES: Extraction of acrylic acid and 3-hydroxypropionic acid from aqueous stock solutions using various extractants
- TEST CONDITIONS: Aqueous Stock Solution No. 5 (12.51 wt % AA, 25.05 wt % 3HP); 22° C.; extractant phase/aqueous phase
Listing of entries alongside the reported Partition Coefficient, D AA.
MEASURED PROPERTY: Partition Coefficient, D AA

ClCCl [CH2Cl2, Methylene chloride]	0.48
CCC(=O)OC [Methyl Propionate, Methyl propionate]	1.88
CC(=O)OC(C)C [Isopropyl Acetate, Isopropyl acetate]	2.02
C=CC(=O)OC [Methyl Acrylate, Methyl acrylate]	1.80

* * *

Listing of entries alongside the reported Separation Factor, S AA/3HP.
- PROTOCOL NOTES: Extraction of acrylic acid and 3-hydroxypropionic acid from aqueous stock solutions using various extractants
- TEST CONDITIONS: Aqueous Stock Solution No. 1 (0.67 wt % AA, 1.34 wt % 3HP); 22° C.
MEASURED PROPERTY: Separation Factor, S AA/3HP

CC(=O)OC(C)C [Isopropyl Acetate, Isopropyl acetate]	43.36
C=CC(=O)OC [Methyl Acrylate, Methyl acrylate]	31.01
CCC(=O)OC [Methyl Propionate, Methyl propionate]	44.43
CCOC(C)=O [Ethyl Acetate, Ethyl acetate, reference compound]	16.55
CC(C)OC(C)C	40.59
CCCCCCCCCCO	77.18
CC(=O)CC(C)C	108.82

* * *

Listing of entries alongside the reported Acid in Extractant Phase, wt % AA.
- PROTOCOL NOTES: Extraction of acrylic acid and 3-hydroxypropionic acid from aqueous stock solutions using various extractants
- TEST CONDITIONS: Aqueous Stock Solution No. 5 (12.51 wt % AA, 25.05 wt % 3HP); 22° C.
MEASURED PROPERTY: Acid in Extractant Phase, wt % AA (wt %)

CC(=O)OC(C)C [Isopropyl Acetate, Isopropyl acetate]	8.95
CCOC(C)=O [Ethyl Acetate, Ethyl acetate, reference compound]	8.07
C=CC(=O)OC [Methyl Acrylate, Methyl acrylate]	8.13
CCC(=O)OC [Methyl Propionate, Methyl propionate]	8.55
ClCCl [CH2Cl2, Methylene chloride]	3.72
CC(=O)CC(C)C [MiBK, Methyl isobutyl ketone]	9.92
Cc1ccccc1 [Toluene]	2.47
CC(C)OC(C)C [Isopropyl Ether, Isopropyl ether]	9.79
CCCCCCCCCCO [Decanol]	8.20

* * *

- PROTOCOL NOTES: Extraction of acrylic acid and 3-hydroxypropionic acid from aqueous stock solutions using various extractants
- TEST CONDITIONS: Aqueous Stock Solution No. 5 (12.51 wt % AA, 25.05 wt % 3HP); 22° C.
Listing of entries alongside the reported Acid in Aqueous Phase, wt % 3HP.
MEASURED PROPERTY: Acid in Aqueous Phase, wt % 3HP (wt %)

CC(C)OC(C)C [Isopropyl Ether, Isopropyl ether]	25.72
ClCCl [CH2Cl2, Methylene chloride]	25.05
C=CC(=O)OC [Methyl Acrylate, Methyl acrylate]	21.57
Cc1ccccc1 [Toluene]	26.72
CC(=O)OC(C)C [Isopropyl Acetate, Isopropyl acetate]	25.35
CCC(=O)OC [Methyl Propionate, Methyl propionate]	22.63
CC(=O)CC(C)C [MiBK, Methyl isobutyl ketone]	24.17
CCCCCCCCCCO [Decanol]	25.90
CCOC(C)=O [Ethyl Acetate, Ethyl acetate, reference compound]	21.16

* * *

- PROTOCOL NOTES: Extraction of acrylic acid and 3-hydroxypropionic acid from aqueous stock solutions using various extractants
- TEST CONDITIONS: Aqueous Stock Solution No. 5 (12.51 wt % AA, 25.05 wt % 3HP); 22° C.
API: label(entry) gives Fulfilled if the entry's Acid in Aqueous Phase, wt % AA is strictly smaller than 6 wt %; on equality or larger values it gives Not fulfilled.

CCC(=O)OC [Methyl Propionate, Methyl propionate]	Fulfilled
CCOC(C)=O [Ethyl Acetate, Ethyl acetate, reference compound]	Fulfilled
C=CC(=O)OC [Methyl Acrylate, Methyl acrylate]	Fulfilled
CC(=O)OC(C)C [Isopropyl Acetate, Isopropyl acetate]	Fulfilled
Cc1ccccc1	Not fulfilled
CC(=O)CC(C)C	Fulfilled
ClCCl [CH2Cl2, Methylene chloride]	Not fulfilled

* * *

- PROTOCOL NOTES: Extraction of acrylic acid and 3-hydroxypropionic acid from aqueous stock solutions using various extractants
- TEST CONDITIONS: Aqueous Stock Solution No. 5 (12.51 wt % AA, 25.05 wt % 3HP); 22° C.
API: label(entry) gives Criterion met if the entry's Separation Factor, S AA/3HP is strictly smaller than 10; on equality or larger values it gives Criterion not met.

CC(=O)CC(C)C	Criterion not met
CCC(=O)OC [Methyl Propionate, Methyl propionate]	Criterion met
CC(C)OC(C)C	Criterion not met
CCOC(C)=O [Ethyl Acetate, Ethyl acetate, reference compound]	Criterion met
C=CC(=O)OC [Methyl Acrylate, Methyl acrylate]	Criterion met
ClCCl [CH2Cl2, Methylene chloride]	Criterion not met
CC(=O)OC(C)C [Isopropyl Acetate, Isopropyl acetate]	Criterion not met
CCCCCCCCCCO	Criterion not met

* * *

- PROTOCOL NOTES: Extraction of acrylic acid and 3-hydroxypropionic acid from aqueous stock solutions using various extractants
- TEST CONDITIONS: Aqueous Stock Solution No. 1 (0.67 wt % AA, 1.34 wt % 3HP); 22° C.
MEASURED PROPERTY: Acid in Extractant Phase, wt % AA (wt %)

CC(=O)CC(C)C	0.59
ClCCl [CH2Cl2, Methylene chloride]	0.04
CCC(=O)OC [Methyl Propionate, Methyl propionate]	0.51
CCOC(C)=O [Ethyl Acetate, Ethyl acetate, reference compound]	0.59
CCCCCCCCCCO	0.47
C=CC(=O)OC [Methyl Acrylate, Methyl acrylate]	0.45
CC(C)OC(C)C	0.44
CC(=O)OC(C)C [Isopropyl Acetate, Isopropyl acetate]	0.52

* * *

- PROTOCOL NOTES: Extraction of acrylic acid and 3-hydroxypropionic acid from aqueous stock solutions using various extractants
- TEST CONDITIONS: Aqueous Stock Solution No. 5 (12.51 wt % AA, 25.05 wt % 3HP); 22° C.
Listing of entries alongside the reported Acid in Extractant Phase, wt % 3HP.
MEASURED PROPERTY: Acid in Extractant Phase, wt % 3HP (wt %)

CCOC(C)=O [Ethyl Acetate, Ethyl acetate, reference compound]	8.68
CC(=O)CC(C)C [MiBK, Methyl isobutyl ketone]	5.46
CC(=O)OC(C)C [Isopropyl Acetate, Isopropyl acetate]	3.82
CC(C)OC(C)C [Isopropyl Ether, Isopropyl ether]	1.85
CCC(=O)OC [Methyl Propionate, Methyl propionate]	5.54
C=CC(=O)OC [Methyl Acrylate, Methyl acrylate]	6.70
ClCCl [CH2Cl2, Methylene chloride]	0.53
CCCCCCCCCCO [Decanol]	3.21

* * *

- PROTOCOL NOTES: Extraction of acrylic acid and 3-hydroxypropionic acid from aqueous stock solutions using various extractants
- TEST CONDITIONS: Aqueous Stock Solution No. 1 (0.67 wt % AA, 1.34 wt % 3HP); 22° C.
MEASURED PROPERTY: Acid in Aqueous Phase, wt % 3HP (wt %)

CCCCCCCCCCO	1.37
CC(=O)OC(C)C [Isopropyl Acetate, Isopropyl acetate]	1.28
Cc1ccccc1	1.42
CCC(=O)OC [Methyl Propionate, Methyl propionate]	1.22
CC(=O)CC(C)C	1.32
CC(C)OC(C)C	1.30
C=CC(=O)OC [Methyl Acrylate, Methyl acrylate]	1.24
CCOC(C)=O [Ethyl Acetate, Ethyl acetate, reference compound]	1.13
ClCCl [CH2Cl2, Methylene chloride]	1.39

* * *

- PROTOCOL NOTES: Extraction of acrylic acid and 3-hydroxypropionic acid from aqueous stock solutions using various extractants
- TEST CONDITIONS: Aqueous Stock Solution No. 1 (0.67 wt % AA, 1.34 wt % 3HP); 22° C.
Listing of entries alongside the reported Acid in Extractant Phase, wt % 3HP.
MEASURED PROPERTY: Acid in Extractant Phase, wt % 3HP (wt %)

CC(C)OC(C)C	0.04
CC(=O)CC(C)C	0.03
CCC(=O)OC [Methyl Propionate, Methyl propionate]	0.06
CCOC(C)=O [Ethyl Acetate, Ethyl acetate, reference compound]	0.20
CCCCCCCCCCO	0.03
CC(=O)OC(C)C [Isopropyl Acetate, Isopropyl acetate]	0.06
C=CC(=O)OC [Methyl Acrylate, Methyl acrylate]	0.07
